Origin of values: the supplement of paper PMC9262897

tested on: E. coli TESEC Mtb Alr; assay: growth (OD600 after 10 h); higher = more growth (less inhibition); conditions: arabinose 10000 nM; compound 0.1 mM; raw OD600 reference: median of DMSO wells 0.264, cell-free background 0.041
Structures can show the parent of a compound that is named as a salt.
Measured property: growth
Answer with a number only.

These recorded examples may help you get a feel for the data.
Incoming: Any idea what growth was measured for COc1ccc(C(Cl)=C(c2ccc(OC)cc2)c2ccc(OC)cc2)cc1 [Chlorotrianisene] ?
Outgoing: 0.256

Incoming: Look up growth for this molecule: CCCOc1ccc2[nH]c(NC(=O)OC)nc2c1 [Oxibendazol]
Outgoing: 0.269

Incoming: I have this molecule here, NC12CC3CC(CC(C3)C1)C2 [Adamantamine fumarate] , and I need its recorded growth.
Outgoing: 0.271

Incoming: What value of growth has been recorded for this entry: NNc1nncc2ccccc12 [Hydralazine hydrochloride]
Outgoing: 0.256

Incoming: For CN(C/C=C/C#CC(C)(C)C)Cc1cccc2ccccc12 [Terbinafine] , what is its reported growth?
Outgoing: 0.226

Incoming: Which measured growth value corresponds to CSc1ccc2c(c1)N(CCC1CCCCN1C)c1ccccc1S2 (centres undefined) [Thioridazine hydrochloride] ?
Outgoing: 0.0393

Incoming: Give the measured growth of Nc1nc(=O)c2c([nH]1)NC[C@@H](CNc1ccc(C(=O)N[C@@H](CCC(=O)O)C(=O)O)cc1)N2C=O [Folinic acid calcium salt] .
Outgoing: 0.274

Incoming: Query: growth; subject: CN(C)CCCN1c2ccccc2CCc2ccc(Cl)cc21 [Clomipramine hydrochloride]
Outgoing: 0.0395

***
Incoming: So what does the record say about growth for NS(=O)(=O)c1cc2c(cc1Cl)NC(C(Cl)Cl)NS2(=O)=O (centres undefined) [Trichlormethiazide] ?
Outgoing: 0.278

Incoming: Look up growth for this molecule: CC1COc2c(N3CCN(C)CC3)c(F)cc3c(=O)c(C(=O)O)cn1c23 (centres undefined) [Ofloxacin]
Outgoing: 0.0388

Incoming: Fill blank: measured growth of the molecule CN(C/C=C/c1ccccc1)Cc1cccc2ccccc12 [Naftifine hydrochloride] is ____.
Outgoing: 0.0432

###

test system: E. coli TESEC Mtb Asd; assay: growth (OD600 after 10 h); higher = more growth (less inhibition); conditions: arabinose induction (level): Low; compound 0.1 mM; raw OD600 reference: median of DMSO wells 0.417, cell-free background 0.041
Where a name gives a salt, the structure may show the parent alone.
Measured property: growth
Reply with just the number.

See these solved cases before continuing.
Incoming: # input compound: CC(C)NCC(O)c1ccc(O)c(O)c1 (single isomer, unassigned; (-)) [(-)-Isoproterenol hydrochloride] ; wanted: its growth
Outgoing: 0.392

Incoming: Query: growth; subject: NC[C@@H]1O[C@H](O[C@H]2[C@@H](O)[C@H](O[C@@H]3[C@@H](O)[C@H](N)C[C@H](N)[C@H]3O[C@H]3O[C@H](CO)[C@@H](O)[C@H](O)[C@H]3N)O[C@@H]2CO)[C@H](N)[C@@H](O)[C@@H]1O [Paromomycin sulfate]
Outgoing: 0.447

Incoming: Name the reported growth value associated with the compound CN(C)CCn1nnnc1SCC1=C(C(=O)O)N2C(=O)[C@@H](NC(=O)Cc3csc(N)n3)[C@H]2SC1 [Cefotiam hydrochloride]
Outgoing: 0.34

Incoming: Please give the measured growth for this compound: Brc1c(NC2=NCCN2)ccc2nccnc12 [Brimondine L-Tartrate]
Outgoing: 0.368

Incoming: Param item = Cn1c(=O)c2nc[nH]c2n(C)c1=O [Theophylline monohydrate] ; retrieve measured growth.
Outgoing: 0.455

Incoming: State the recorded growth for this entry: CC(C)Cc1ccc([C@H](C)C(=O)O)cc1 [S-(+)-ibuprofen]
Outgoing: 0.311

Incoming: Reported growth for CC(N)CCCC(C)(C)O (configuration not stated) [Heptaminol hydrochloride] : what is it?
Outgoing: 0.442

Incoming: Reported growth for "CC1=C(/C=C/C(C)=C/C=C/C(C)=C\C(=O)O)C(C)(C)CCC1" : what is it?
Outgoing: 0.365

***
Incoming: What value of growth has been reported for the following compound? "Nc1ccn([C@H]2CC[C@@H](CO)O2)c(=O)n1"
Outgoing: 0.407
